measurement_protocol: Pharmacokinetics after intravenous injection
Assay type: in vivo
recorded_conditions: male, mouse, plasma; 5 mg/kg IV, ICR mice, mean ± SD (n = 3)

# compound, clearance at 24 h (L/h/kg)
measured = [
    ("O=P(O)(O)CCN1CCC(Nc2cc(N3CCOCC3)nc(NCc3cn(CCCO)nn3)n2)CC1 [CN016]", 0.768),
]

---

tested_on: CYP 2E1 (Homo sapiens, UniProt P05181)
Construct: host or cells: baculovirus-infected insect cells (supersomes)
Sequence (P05181 whole entry): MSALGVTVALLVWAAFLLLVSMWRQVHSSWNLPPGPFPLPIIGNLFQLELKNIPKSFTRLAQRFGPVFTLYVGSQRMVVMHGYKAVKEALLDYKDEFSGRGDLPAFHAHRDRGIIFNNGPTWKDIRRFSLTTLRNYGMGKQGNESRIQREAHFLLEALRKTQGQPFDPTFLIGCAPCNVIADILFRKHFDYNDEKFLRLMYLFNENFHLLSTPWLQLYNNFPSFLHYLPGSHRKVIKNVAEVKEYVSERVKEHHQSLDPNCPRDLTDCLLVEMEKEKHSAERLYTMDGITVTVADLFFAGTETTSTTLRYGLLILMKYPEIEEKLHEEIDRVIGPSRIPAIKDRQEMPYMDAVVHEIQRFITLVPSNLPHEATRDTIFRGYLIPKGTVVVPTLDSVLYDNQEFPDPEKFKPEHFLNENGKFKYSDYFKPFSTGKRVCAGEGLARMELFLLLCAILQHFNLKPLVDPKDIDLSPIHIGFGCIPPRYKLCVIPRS
measurement_protocol: Cytochrome P450 testing, CYP 2E1
Assay type: in vitro ADME
recorded_conditions: chlorzoxazone 6-hydroxylation; read-out: Concentration of inhibition (IC50), CYP 2E1
pIC50: −log10 of the molar value.

# cpd_smiles, tested_on, pIC50
rows = [
    ("O=P(O)(O)CCN1CCC(Nc2cc(N3CCOCC3)nc(NCc3cn(CCCO)nn3)n2)CC1", "CYP 2E1 (Homo sapiens, UniProt P05181)", "< 4.00"),
]

---

// reported activity at 1 µM per item
Tested on: primary cortical neurons
measurement_protocol: Neurite outgrowth assay of primary cortical neurons (image-based HCS) against paclitaxel-induced neurotoxicity
Assay type: cell-based, mouse
recorded_conditions: Mus musculus, Primary cortical neuron; test compound 1000 nM + paclitaxel 1 μM; mean ± SE; read-out: D: Neurite outgrowth (% of control) of test compound (1000 nM) + paclitaxel (1 μM)
Method: Herein, we wish to report that an in vitro neurite outgrowth assay of cortical neurons integrated with an image-based high-content screening (HCS) platform is used to evaluate a commercially available library of 78 minoxidil-related derivatives,[22] leading to the identification of a series of analogues able to prevent or alleviate paclitaxel-induced neurotoxicity. […] Subsequently, both neurite outgrowth and synaptogenesis were measured to evaluate the test compounds’ neuroprotective capacity. […]

# molecule, activity at 1 µM / %
measured = [
    ("CN(C)c1ccc(/C=N/Nc2cc(N3CCOCC3)nc(N3CCOCC3)n2)cc1 [CSV0A041617]", 94),
    ("COc1cc(/C=N/Nc2cc(N3CCOCC3)nc(N3CCOCC3)n2)ccc1O [CSV0B002704]", 65),
    ("CCN(CC)c1ccc(/C=N/Nc2cc(N3CCCCC3)nc(N3CCCCC3)n2)cc1 [CSV0A023090]", 58),
    ("CN(C)c1ccc(/C=N/Nc2cc(N3CCCCC3)nc(N3CCCCC3)n2)cc1 [CSV0A041618]", 55),
    ("CN(C)c1cc(NNC(=O)c2ccccc2O)nc(N(C)C)n1 [CSV0A2327S0]", 53),
    ("CCCN(CCC)c1cc(N/N=C/c2cc(Br)ccc2O)nc(N(CCC)CCC)n1 [CSV0A020330]", 45),
    ("CCN(CC)c1cc(N/N=C/c2ccccc2O)nc(N(CC)CC)n1 [CSV0B018834]", 39),
    ("Oc1cccc(/C=N/Nc2cc(N3CCCCC3)nc(N3CCCCC3)n2)c1 [CSV0B001120]", 82),
    ("O=[N+]([O-])c1ccc(/C=N/Nc2cc(N3CCCCC3)nc(N3CCCCC3)n2)cc1 [CSV0A011998]", 61),
]

---

tested_on: UniProt Q12809
measurement_protocol: hERG patch-clamp assay (hERG-CHO, automated patch-clamp)
Type: cell-based
Set-up: host or cells: CHO (hERG-CHO)
recorded_conditions: human, CHO cells that express hERG (hERG-CHO); 100 μM

# cpd_smiles, tested_on, inhibition at 100 µM (%)
measured = [
    ("O=P(O)(O)CCN1CCC(Nc2cc(N3CCOCC3)nc(NCc3cn(CCCO)nn3)n2)CC1", "UniProt Q12809", 32.9),
]

---

tested_on: hERG (Homo sapiens)
Sequence (Q12809 whole entry): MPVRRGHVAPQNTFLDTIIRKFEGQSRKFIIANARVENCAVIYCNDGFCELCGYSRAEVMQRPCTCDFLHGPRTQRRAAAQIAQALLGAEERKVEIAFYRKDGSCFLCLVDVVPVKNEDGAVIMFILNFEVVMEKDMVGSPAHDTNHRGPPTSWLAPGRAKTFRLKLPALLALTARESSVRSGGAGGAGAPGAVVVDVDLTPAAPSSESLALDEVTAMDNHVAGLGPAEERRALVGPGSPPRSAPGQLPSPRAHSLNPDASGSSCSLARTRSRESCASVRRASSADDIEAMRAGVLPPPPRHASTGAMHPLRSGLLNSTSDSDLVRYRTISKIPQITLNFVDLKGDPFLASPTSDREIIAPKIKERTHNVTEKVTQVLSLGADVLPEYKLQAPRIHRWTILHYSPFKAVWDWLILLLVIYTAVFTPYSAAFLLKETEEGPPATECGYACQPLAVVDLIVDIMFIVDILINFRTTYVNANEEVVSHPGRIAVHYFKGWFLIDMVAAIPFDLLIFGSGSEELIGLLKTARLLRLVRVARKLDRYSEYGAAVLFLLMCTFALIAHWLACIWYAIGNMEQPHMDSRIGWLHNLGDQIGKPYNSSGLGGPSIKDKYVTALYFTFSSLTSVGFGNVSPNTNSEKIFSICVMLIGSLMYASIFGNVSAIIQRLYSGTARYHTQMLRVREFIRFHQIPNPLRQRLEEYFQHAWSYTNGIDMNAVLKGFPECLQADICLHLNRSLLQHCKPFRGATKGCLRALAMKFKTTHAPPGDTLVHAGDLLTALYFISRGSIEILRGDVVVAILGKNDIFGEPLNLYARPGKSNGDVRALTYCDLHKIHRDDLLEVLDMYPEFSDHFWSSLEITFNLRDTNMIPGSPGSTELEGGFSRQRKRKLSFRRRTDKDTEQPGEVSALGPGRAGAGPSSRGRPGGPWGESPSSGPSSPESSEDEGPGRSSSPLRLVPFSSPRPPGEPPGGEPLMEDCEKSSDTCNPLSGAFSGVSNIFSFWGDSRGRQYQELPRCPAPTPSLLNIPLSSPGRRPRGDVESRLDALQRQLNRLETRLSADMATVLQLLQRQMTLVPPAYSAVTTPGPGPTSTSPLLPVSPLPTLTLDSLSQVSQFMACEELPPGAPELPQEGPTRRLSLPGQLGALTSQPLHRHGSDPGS
measurement_protocol: hERG patch-clamp assay (hERG-CHO, automated patch-clamp)
Type: cell-based
Parameters: host or cells: CHO (hERG-CHO)
recorded_conditions: human, CHO cells that express hERG (hERG-CHO); 10 μM

# cpd_smiles, inhibition at 10 µM
data = [
    ("O=P(O)(O)CCN1CCC(Nc2cc(N3CCOCC3)nc(NCc3cn(CCCO)nn3)n2)CC1", "19.1%"),
]

---

Test system: primary cortical neurons
measurement_protocol: Neurite outgrowth assay of primary cortical neurons (image-based HCS) against paclitaxel-induced neurotoxicity
Type: cell-based, mouse
recorded_conditions: Mus musculus, Primary cortical neuron; test compound 1000 nM + paclitaxel 1 μM; mean ± SE; read-out: D: Neurite outgrowth (% of control) of test compound (1000 nM) + paclitaxel (1 μM)
Experimental: Herein, we wish to report that an in vitro neurite outgrowth assay of cortical neurons integrated with an image-based high-content screening (HCS) platform is used to evaluate a commercially available library of 78 minoxidil-related derivatives,[22] leading to the identification of a series of analogues able to prevent or alleviate paclitaxel-induced neurotoxicity. […] Subsequently, both neurite outgrowth and synaptogenesis were measured to evaluate the test compounds’ neuroprotective capacity. […]
measurement_name: activity at 1 µM (%)

# molecule, reading
records = [
    ("CCN(CC)c1cc(N/N=C/c2cccc(O)c2)nc(N(CC)CC)n1 [CSV0A007879]", 35),
    ("COc1ccccc1/C=N/Nc1cc(N2CCOCC2)nc(N2CCOCC2)n1 [CSV0A013031]", 67),
    ("O=[N+]([O-])c1ccc(/C=N/Nc2cc(N3CCCCCC3)nc(N3CCCCCC3)n2)cc1 [CSV0A012753]", 75),
    ("CN(C)c1cc(N/N=C/c2cc3c(c([N+](=O)[O-])c2)OCO3)nc(N(C)C)n1 [CSV0A047583]", 61),
]

---

Test system: primary cortical neurons
measurement_protocol: Neurite outgrowth assay of primary cortical neurons (image-based HCS) against paclitaxel-induced neurotoxicity
Assay type: cell-based, mouse
recorded_conditions: Mus musculus, Primary cortical neuron; test compound 1000 nM + paclitaxel 1 μM; mean ± SE; read-out: D: Neurite outgrowth (% of control) of test compound (1000 nM) + paclitaxel (1 μM)
measurement_name: activity at 1 µM (%)

# cpd_smiles, reading
measured = [
    ("Oc1ccc(Br)cc1/C=N/Nc1cc(N2CCOCC2)nc(N2CCOCC2)n1", 89),
    ("CC(C)(C)c1ccc(C(=O)NNc2cc(N3CCCC3)nc(N3CCCC3)n2)cc1", 74),
    ("CC(C)(C)c1ccc(C(=O)NNc2cc(N3CCCCC3)nc(N3CCCCC3)n2)cc1", 80),
    ("COc1ccc(/C=N/Nc2cc(N3CCCC3)nc(N3CCCC3)n2)cc1", 63),
]

---

Tested on: mouse primary DRG neurons
measurement_protocol: Neurite outgrowth assay of DRG neurons (image-based HCS) against paclitaxel-induced neurotoxicity
Assay type: cell-based
recorded_conditions: pretreated, + 50 nM paclitaxel; DRG neurons
measurement_name: protective efficacy against paclitaxel-induced neurotoxicity (in words)

# molecule, reading
measured = [
    ("O=P(O)(O)CCN1CCC(Nc2cc(N3CCOCC3)nc(NCc3ccc(CCO)cc3)n2)CC1 [CN019]", "inactive"),
    ("CCOP(=O)(CCN1CCC(Nc2cc(N3CCOCC3)nc(NCc3ccc(CCO)cc3)n2)CC1)OCC [CN018]", "inactive"),
    ("COC(=O)CCN1CCC(Nc2cc(N3CCOCC3)nc(NCCCCCCO)n2)CC1 [CN017]", "inactive"),
]

---

tested_on: hERG (Homo sapiens)
measurement_protocol: hERG patch-clamp assay (hERG-CHO, automated patch-clamp)
Type: cell-based
Parameters: host or cells: CHO (hERG-CHO)
recorded_conditions: human, CHO cells that express hERG (hERG-CHO); 1 μM

# compound, inhibition at 1 µM / %
records = [
    ("O=P(O)(O)CCN1CCC(Nc2cc(N3CCOCC3)nc(NCc3cn(CCCO)nn3)n2)CC1 [CN016]", 6),
]

---

Test system: primary cortical neurons
measurement_protocol: Neurite outgrowth assay of primary cortical neurons (image-based HCS) against paclitaxel-induced neurotoxicity
Format: cell-based, mouse
recorded_conditions: Mus musculus, Primary cortical neuron; test compound 1000 nM + paclitaxel 1 μM; mean ± SE; read-out: D: Neurite outgrowth (% of control) of test compound (1000 nM) + paclitaxel (1 μM)
Experimental: Herein, we wish to report that an in vitro neurite outgrowth assay of cortical neurons integrated with an image-based high-content screening (HCS) platform is used to evaluate a commercially available library of 78 minoxidil-related derivatives,[22] leading to the identification of a series of analogues able to prevent or alleviate paclitaxel-induced neurotoxicity. […] Subsequently, both neurite outgrowth and synaptogenesis were measured to evaluate the test compounds’ neuroprotective capacity. […]
// reported activity at 1 µM per item

# compound, activity at 1 µM / %
data = [
    ("Clc1ccc(/C=N/Nc2cc(N3CCOCC3)nc(N3CCOCC3)n2)cc1", 89),
    ("CCOc1ccc(Nc2nc(/N=C/c3c(OC)c(C(=O)Nc4ccccc4C)cc4ccccc34)c([N+](=O)[O-])c(NCc3ccccc3)n2)cc1", 95),
    ("Nc1cc(N2CCCCC2)nc(N)[n+]1[O-] [Minoxidil, reference compound]", 66),
    ("CCCN(CCC)c1cc(N/N=C/c2ccccc2OC)nc(N(CCC)CCC)n1", 53),
    ("O=[N+]([O-])c1cccc(/C=N/Nc2cc(N3CCOCC3)nc(N3CCOCC3)n2)c1", 60),
]
